biological target: DNA gyrase (Staphylococcus aureus) (UniProt P0A0K8+P20831); test: In vitro antibacterial activity against gram-positive organism Staphylococcus aureus ATCC 6538p; assay type: functional
Sequence (P0A0K8 2-644 limits assumed): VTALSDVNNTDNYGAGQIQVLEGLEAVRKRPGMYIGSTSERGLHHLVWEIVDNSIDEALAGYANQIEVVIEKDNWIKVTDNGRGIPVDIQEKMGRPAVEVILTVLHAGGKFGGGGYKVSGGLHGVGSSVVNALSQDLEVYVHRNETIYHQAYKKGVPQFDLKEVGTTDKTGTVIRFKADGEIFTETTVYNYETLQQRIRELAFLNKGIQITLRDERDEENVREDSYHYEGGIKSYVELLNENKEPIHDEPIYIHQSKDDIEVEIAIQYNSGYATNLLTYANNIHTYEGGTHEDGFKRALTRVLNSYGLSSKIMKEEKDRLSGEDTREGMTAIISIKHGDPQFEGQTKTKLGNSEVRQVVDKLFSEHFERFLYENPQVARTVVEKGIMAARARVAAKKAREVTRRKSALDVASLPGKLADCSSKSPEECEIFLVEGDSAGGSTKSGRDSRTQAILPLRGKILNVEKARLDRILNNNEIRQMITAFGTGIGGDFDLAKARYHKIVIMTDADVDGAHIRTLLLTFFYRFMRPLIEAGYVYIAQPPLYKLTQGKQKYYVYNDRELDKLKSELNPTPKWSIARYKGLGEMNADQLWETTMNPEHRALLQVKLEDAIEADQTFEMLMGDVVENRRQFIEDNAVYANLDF
Sequence (P20831 whole entry partner): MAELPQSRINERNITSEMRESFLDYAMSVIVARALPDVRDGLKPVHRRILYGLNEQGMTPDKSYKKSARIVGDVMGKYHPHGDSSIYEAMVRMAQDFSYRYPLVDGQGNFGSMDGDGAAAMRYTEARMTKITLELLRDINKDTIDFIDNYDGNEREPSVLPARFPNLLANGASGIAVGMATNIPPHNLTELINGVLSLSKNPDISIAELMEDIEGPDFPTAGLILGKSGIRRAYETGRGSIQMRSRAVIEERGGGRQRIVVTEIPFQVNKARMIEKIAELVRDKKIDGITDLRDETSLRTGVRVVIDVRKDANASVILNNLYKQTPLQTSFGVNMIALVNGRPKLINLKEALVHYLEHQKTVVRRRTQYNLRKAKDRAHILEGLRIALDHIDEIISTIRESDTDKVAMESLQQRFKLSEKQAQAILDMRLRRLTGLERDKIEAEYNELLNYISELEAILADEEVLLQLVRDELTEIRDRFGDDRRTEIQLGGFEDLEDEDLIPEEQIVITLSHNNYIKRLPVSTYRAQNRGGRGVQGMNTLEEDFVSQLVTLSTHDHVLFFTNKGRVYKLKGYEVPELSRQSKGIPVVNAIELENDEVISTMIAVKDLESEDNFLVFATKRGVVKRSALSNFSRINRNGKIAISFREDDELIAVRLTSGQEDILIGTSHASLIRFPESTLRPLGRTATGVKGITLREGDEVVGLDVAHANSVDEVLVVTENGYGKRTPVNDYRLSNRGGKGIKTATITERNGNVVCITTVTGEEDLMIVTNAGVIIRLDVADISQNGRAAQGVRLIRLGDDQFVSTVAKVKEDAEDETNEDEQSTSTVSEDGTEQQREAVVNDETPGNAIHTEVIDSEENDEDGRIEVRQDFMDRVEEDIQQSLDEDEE
readout.type: MIC
Write the quantity with the unit trailing the number.

The compound identified as `CN1CCN(c2nc3c(-c4ccc(F)cc4)cc(C(=O)O)c(=O)n3cc2F)CC1` registered its MIC at 0.39 mg/L

The compound identified as `Cc1c(N2CC[C@@]3(C[C@H]3N)C2)c(F)cn2c(=O)c(C(=O)O)cc(C3CC3)c12` registered its MIC at 0.005 mg/L

The compound identified as Cc1c(N2CCC(c3ccccn3)C2)c(F)cn2c(=O)c(C(=O)O)cc(C3CC3)c12 (stereo not given) registered its MIC at 0.01 mg/L

The compound identified as `Cc1c(N2CC[C@@H](N)C2)c(F)cn2c(=O)c(C(=O)O)cc(C3CC3)c12` registered its MIC at 0.01 mg/L

The compound identified as Cc1c(N2C[C@@H]3CCN[C@@H]3C2)c(F)cn2c(=O)c(C(=O)O)cc(C3CC3)c12 (stereo in doubt; 45o) registered its MIC at 0.02 mg/L

###

molecular target: DNA gyrase (Escherichia coli) (UniProt P0AES6+P0AES4); experiment: In vitro antibacterial activity against gram-positive organism Enterococcus faecium ATCC 8043; assay type: functional
readout.type: MIC

I looked up `O=C(O)c1cc(C2CC2)c2cc(N3CCNCC3)c(F)cn2c1=O` and its MIC for DNA gyrase (Escherichia coli) (UniProt P0AES6+P0AES4) was 0.78 µg/mL

I looked up NC1CCN(c2nc3c(-c4c(F)c(F)c(F)c(F)c4F)cc(C(=O)O)c(=O)n3cc2F)C1 (stereo not given) and its MIC for DNA gyrase (Escherichia coli) (UniProt P0AES6+P0AES4) was > 100 µg/mL

I looked up `Cc1c(N2C[C@@H]3[C@@H](N)[C@@H]3C2)c(F)cn2c(=O)c(C(=O)O)cc(C3CC3)c12` and its MIC for DNA gyrase (Escherichia coli) (UniProt P0AES6+P0AES4) was 0.1 µg/mL

I looked up `Cc1c(N2CC[C@H]([C@@H](C)N)C2)c(F)cn2c(=O)c(C(=O)O)cc(C3CC3)c12` and its MIC for DNA gyrase (Escherichia coli) (UniProt P0AES6+P0AES4) was 0.01 µg/mL

I looked up Cc1c(N2CCC(N(C)C)C2)c(F)cn2c(=O)c(C(=O)O)cc(C3CC3)c12 (stereo not given) and its MIC for DNA gyrase (Escherichia coli) (UniProt P0AES6+P0AES4) was 0.1 µg/mL

###

system: Pseudomonas aeruginosa; test: In vivo efficacy against Pseudomonas aeruginosa 5007 following p.o. administration.
Please go through the items and note down their ED50.
Give the value in mg/kg but do not write mg/kg after it.

The compound identified as Cc1c(N2CCC(N)C2)c(F)cn2c(=O)c(C(=O)O)cc(C3CC3)c12 (stereo not given) registered its ED50 at 4.6

The compound identified as CC(NC1CCN(c2nc3c(-c4ccc(F)cc4F)cc(C(=O)O)c(=O)n3cc2F)C1)C(=O)O (stereo not given) registered its ED50 at 68.8

The compound identified as `Cc1c(N2CC[C@@H]([C@H](C)N)C2)c(F)cn2c(=O)c(C(=O)O)cc(C3CC3)c12` registered its ED50 at 13

The compound identified as NC1CCN(c2nc3c(-c4ccc(F)cc4F)cc(C(=O)O)c(=O)n3cc2F)C1 (stereo not given) registered its ED50 at 42.1

The compound identified as Cc1c(N2C[C@@H]3CCCN[C@@H]3C2)c(F)cn2c(=O)c(C(=O)O)cc(C3CC3)c12 (stereo in doubt; (S,S)45n) registered its ED50 at 21.4

The compound identified as `Cc1c(N2CC[C@H](N)C2)c(F)cn2c(=O)c(C(=O)O)cc(C3CC3)c12` registered its ED50 at 14.5

The compound identified as Cc1c(N2C[C@@H]3CCCN[C@@H]3C2)c(F)cn2c(=O)c(C(=O)O)cc(C3CC3)c12 (stereo in doubt; 45n) registered its ED50 at 36.4

The compound identified as CC(NC(=O)C(C)NC1CCN(c2nc3c(-c4ccc(F)cc4F)cc(C(=O)O)c(=O)n3cc2F)C1)C(=O)O (stereo not given) registered its ED50 at 68.8

The compound identified as CNC1CCN(c2c(F)cn3c(=O)c(C(=O)O)cc(C4CC4)c3c2C)C1 (stereo not given) registered its ED50 at 7.2

###

system: Streptococcus pyogenes; assay: In vitro antibacterial activity against gram-positive organism Streptococcus pyogenes EES61; format: functional; settings: Streptococcus pyogenes; read-out: MIC
readout.type: MIC (µg/mL)
Give the value in µg/mL but do not write µg/mL after it.

The molecule identified as Cc1c(N2CCC(N)C2)c(F)cn2c(=O)c(/C(O)=C/[N+](=O)[O-])cc(C3CC3)c12 (stereo not given) registered its MIC at 0.2

The molecule identified as NC1CCN(c2c(F)cn3c(=O)c(C(=O)O)cc(C4CC4)c3c2F)C1 (stereo not given) registered its MIC at 0.78

The molecule identified as Cc1c(N2CCC(N(C)C)C2)c(F)cn2c(=O)c(C(=O)O)cc(C3CC3)c12 (stereo not given) registered its MIC at 0.1

The molecule identified as `Cc1c(-n2ccnc2)c(F)cn2c(=O)c(C(=O)O)cc(C3CC3)c12` registered its MIC at 1.56

The molecule identified as Cc1c(N2CCC(N)C2)c(F)cn2c(=O)c(C(=O)O)cc(C3CC3)c12 (stereo not given) registered its MIC at 0.02

The molecule identified as `CN1CCN(c2nc3c(C4CC4)cc(C(=O)O)c(=O)n3cc2F)CC1` registered its MIC at 12.5

The molecule identified as `Cc1c(N2C[C@@H]3C[C@H]2CN3)c(F)cn2c(=O)c(C(=O)O)cc(C3CC3)c12` registered its MIC at 0.2

The molecule identified as NC1CCN(c2nc3c(C4CC4)cc(C(=O)O)c(=O)n3cc2F)C1 (stereo not given) registered its MIC at 1.56

The molecule identified as `Cc1c(N2CCCNCC2)c(F)cn2c(=O)c(C(=O)O)cc(C3CC3)c12` registered its MIC at 0.39

###

target: DNA gyrase (Staphylococcus aureus) (UniProt P0A0K8+P20831); experiment: In vitro antibacterial activity against gram-positive organism Staphylococcus aureus NCTC-10649M; format: functional
Please go through the items and note down their log10 MIC.
Response schema: value (number) is log10 of MIC in units of µg/mL.

The compound identified as `Cc1c(N2CC[C@@H]([C@@H](C)N)C2)c(F)cn2c(=O)c(C(=O)O)cc(C3CC3)c12` registered its log10 MIC at -2.70

The compound identified as CCc1c(N2CCC(N)C2)c(F)cn2c(=O)c(C(=O)O)cc(C3CC3)c12 (stereo not given) registered its log10 MIC at -1.00

The compound identified as `Cc1c(N(C)CCN)c(F)cn2c(=O)c(C(=O)O)cc(C3CC3)c12` registered its log10 MIC at 0.19

The compound identified as `Cc1c(N2CC[C@H]([C@@H](C)N)C2)c(F)cn2c(=O)c(C(=O)O)cc(C3CC3)c12` registered its log10 MIC at -2.70

The compound identified as Cc1c(F)c(N2CCC(N)C2)cc2c(C3CC3)cc(C(=O)O)c(=O)n12 (stereo not given) registered its log10 MIC at 0.19

The compound identified as Cc1c(N2C[C@@H]3CCCN[C@@H]3C2)c(F)cn2c(=O)c(C(=O)O)cc(C3CC3)c12 (stereo in doubt; (S,S)45n) registered its log10 MIC at -2.00

The compound identified as `CN1CCN(c2nc3c(-c4ccc(F)cc4F)cc(C(=O)O)c(=O)n3cc2F)CC1` registered its log10 MIC at -0.70

The compound identified as `Cc1c(N2CC[C@H](O)C2)c(F)cn2c(=O)c(C(=O)O)cc(C3CC3)c12` registered its log10 MIC at -2.30

The compound identified as CCc1cc(C(=O)O)c(=O)n2ccc(N3CCC(N)C3)cc12.Cl (stereo not given) registered its log10 MIC at 0.79

The compound identified as Cc1c(N2CCC(N)C2)c(F)cn2c(=O)c(C(=O)O)cc(C3CC3)c12 (stereo not given) registered its log10 MIC at -2.00

###

target: DNA gyrase (Escherichia coli) (UniProt P0AES6+P0AES4); assay: In vitro antibacterial activity against gram-positive organism Streptococcus bovis A-5169; format: functional; conditions: Streptococcus equinus
Please go through the items and note down their MIC.
Give the value in µg/mL but do not write µg/mL after it.

The molecule identified as Cc1c(N2C[C@@H]3CCCN[C@@H]3C2)c(F)cn2c(=O)c(C(=O)O)cc(C3CC3)c12 (stereo in doubt; 45n) registered its MIC at 0.05

The molecule identified as CCc1cc(C(=O)O)c(=O)n2cc(F)c(N3CCC(N)C3)c(C)c12 (stereo not drawn) registered its MIC at 0.78

The molecule identified as CNC1CCN(c2c(F)cn3c(=O)c(C(=O)O)cc(C4CC4)c3c2C)C1 (stereo not drawn) registered its MIC at 0.1

The molecule identified as `Cc1c(N2CC[C@H](O)C2)c(F)cn2c(=O)c(C(=O)O)cc(C3CC3)c12` registered its MIC at 0.1

The molecule identified as Cc1c(N2C[C@H]3CCCN[C@H]3C2)c(F)cn2c(=O)c(C(=O)O)cc(C3CC3)c12 (single isomer, unassigned) registered its MIC at 0.05

The molecule identified as Cc1c(N2CCC(O)C2)c(F)cn2c(=O)c(C(=O)O)cc(C3CC3)c12 (stereo not drawn) registered its MIC at 0.05

The molecule identified as Cc1c(N2C[C@@H]3CCN[C@@H]3C2)c(F)cn2c(=O)c(C(=O)O)cc(C3CC3)c12 (stereo in doubt; (S,S)45o) registered its MIC at 0.1

The reported numbers originate from ChEMBL document CHEMBL1129258.
